test: COS7 lysate on small-molecule microarray, probe aHis, 635 nm (AID 1123); conditions: COS7 cell lysate, fluorescence, higher = more signal;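 also: z-score combines 667nm fluorescence intensity with signal-to-noise per printed compound spot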
ASSAY_READOUT: composite z-score
Please reply with the value in numeric form only.

Give the reported composite z-score for this compound. C=CCOC(=O)[C@H]1[C@@H]2C(=O)O[C@@H](c3ccccc3)[C@@H](c3ccccc3)N2[C@@H](c2ccc(OCCOC(=O)[C@H]3C[C@H]4C(=O)N[C@@H](Cc5ccccc5)C(=O)N4[C@H]3c3cccc(OCCO)c3)cc2)[C@]12C(=O)Nc1ccc(I)cc12
-0.0456

Give the reported composite z-score for this compound. CC(C)OC(=O)CC(=O)CC(O)c1cccc(C#N)c1 (configuration not stated)
1.03

Give the reported composite z-score for this compound. C=CCN1C(=O)[C@@]2(O[C@@H](CCO)[C@H]([Si](C)(C)c3ccc(OC)cc3)[C@H]2C)c2cc(N3C(=O)c4ccccc4Oc4ccccc43)ccc21
1.15

Give the reported composite z-score for this compound. [N-]=[N+]=Nc1ccccc1C[C@]1(C(=O)NCc2ccccc2)N=C(c2ccc(OCCCO)cc2)O[C@H]1c1ccccc1
2.93

Give the reported composite z-score for this compound. CCCC=C(CCC)[C@@H](NP(=O)(c1ccccc1)c1ccccc1)c1ccc(C(F)(F)F)cc1
0.442

Give the reported composite z-score for this compound. C=CC[C@]12N=C(c3ccc(OCCCO)cc3)O[C@H]1c1ccccc1N(C)C2=O
2.73

Give the reported composite z-score for this compound. CC(C)NC(=O)[C@@]1(C)c2ccccc2C(=O)N(C(C)C)[C@H]1c1ccc(CO)cc1
2.61

----------
Exercise: for every item that follows, state its recorded composite z-score.
test system: Noggin (protein binding on small-molecule microarray); assay: Noggin binders on small-molecule microarray, primary screen, biochemical, 635/667 nm fluorescence (AID 1095); conditions: 635 nm fluorescence, higher = more signal;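 also: score merges 667 nm feature fluorescence with signal to noise over triplicate slides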

State, for Noggin (protein binding on small-molecule microarray), measured composite z-score of the compound listed here: CC(C)CN1C(=O)[C@@]2(c3ccc([N+](=O)[O-])cc3)CC(=O)N(CC34CC5CC(CC(C5)C3)C4)[C@@H]2c2ccc(CO)cc21
-1.21

State, for Noggin (protein binding on small-molecule microarray), measured composite z-score of the compound listed here: CC1CC/C=C\[C@H]2OC34C=CCN(C(C)C)C(=O)[C@H]3N(CCCCCO)C(=O)[C@@H]4C2C(=O)O1 (some centres undefined)
-1.43

State, for Noggin (protein binding on small-molecule microarray), measured composite z-score of the compound listed here: COC(=O)[C@@]1(Cc2ccc(OC)cc2)[C@H]2c3cc(C(=O)N(C)C)n(Cc4nc5ccccc5[nH]4)c3C[C@H]2CN1C(=O)c1ccccc1
0.493

State, for Noggin (protein binding on small-molecule microarray), measured composite z-score of the compound listed here: COCCOC(=O)N1C(=O)[C@@]2(c3cc(C#Cc4ccc(OC)cc4)ccc31)[C@H](C(=O)N1CCN(c3ncccn3)CC1)[C@H]1C(=O)O[C@H](c3ccccc3)[C@H](c3ccccc3)N1[C@@H]2c1ccccc1OCCO
0.735

----------
Exercise: for every item that follows, state its recorded composite z-score.
assay: small-molecule binders of probe aLefty1, primary screen, biochemical, small-molecule microarray, 635/667 nm fluorescence (AID 1153); details: higher = more signal;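 also: score merges spot fluorescence with signal-to-noise ratio from the scanned slide images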
Please reply with the value in numeric form only.

Give the reported composite z-score for this molecule. [N-]=[N+]=NCc1ccccc1C[C@@]1(C(=O)N2CCCCC2)N=C(c2ccc(OCCCO)cc2)O[C@@H]1c1ccccc1N=[N+]=[N-]
-0.126

Give the reported composite z-score for this molecule. COc1ccc(NN2C(C(O)c3ccccn3)C=CC3C(=O)N(C4CCCCC4)C(=O)C32)cc1 (stereo not drawn)
0.267

Give the reported composite z-score for this molecule. O=C(CS)NCCCCCCNC(=O)[C@@H]1C[C@@H]2C(=O)N3CCC[C@H]3C(=O)N2[C@@H]1c1cccc(OCCO)c1
0.113

Give the reported composite z-score for this molecule. CC(C)CNC(=O)[C@@H]1c2ccccc2C(=O)N(Cc2cc(F)cc(C(F)(F)F)c2)[C@H]1c1ccc(CO)cc1
0.0571

Give the reported composite z-score for this molecule. COc1ccc(CCNC(=O)[C@@]2(Sc3ccc(C)cc3)CC(=O)N(Cc3cc(C(F)(F)F)cc(C(F)(F)F)c3)[C@@H]2c2ccc(CO)cc2I)cc1
0.0509

Give the reported composite z-score for this molecule. CCOC(=O)C1=CC[C@@H](c2cc(Cl)ccc2Cl)N(S(=O)(=O)c2ccc(C)cc2)[C@H]1c1ccc(OC)cc1
0.369

Give the reported composite z-score for this molecule. O=C1NC(=O)C2C1C=CC(C(O)c1cc(C(F)(F)F)cc(C(F)(F)F)c1)N2Nc1ccc(Cl)cc1Cl (stereo not drawn)
0.546

Give the reported composite z-score for this molecule. CC(=O)NCCCC[C@@H]1NC(=O)[C@@H]2C[C@H](C(=O)O)[C@H](c3ccc(O)cc3)N2C1=O
0.202
